src = ChEMBL document CHEMBL3507680

- protocolDetails: Human HepG2 cell viability assay in 384 well format
- Format: toxicity, cell-based
- Parameters: dose 125 nL, time 70.5 hour; concentration not given beside the values
- recordedConditions: HepG2 cells, read-out: Inhibition
assayEndpoint: cytotoxicity at 70.5 h (%)
Answers are plain numbers, in %.

Some entries whose results are on file:
molecule: Cc1cc(C(=O)N2CCC3(CC2)CC(c2cccnc2)C(=O)N3C)no1 (stereo not given)
cytotoxicity at 70.5 h, %: 1.74

molecule: COc1ccc(C(C(=O)O)N(C)Cc2c(C)nn(C)c2C)c(C)c1 (stereo not given)
cytotoxicity at 70.5 h, %: -10

molecule: CCN(CC)CCSc1nnc(N2CCN(c3ccc(F)cc3)CC2)s1
cytotoxicity at 70.5 h, %: -5.54

molecule: O=C(CCSc1ccccc1F)NS(=O)(=O)c1ccc2c(c1)OCCO2
cytotoxicity at 70.5 h, %: -4.85

molecule: CC(Cn1ccnc1)NC(=O)NCCN1CCc2ccccc2C1 (stereo not given)
cytotoxicity at 70.5 h, %: 0.814

molecule: CN(C)S(=O)(=O)N1CC[C@]2(O)CCN(c3ncccn3)C[C@@H]2C1
cytotoxicity at 70.5 h, %: -9.31

molecule: Cc1nc(CN2CCCN(C(=O)c3c(C)noc3C)CC2)cs1
cytotoxicity at 70.5 h, %: -5.02

molecule: COCCN1CCc2ccccc2NCCC1=O
cytotoxicity at 70.5 h, %: -6.61

molecule: COCCCC1(C(=O)O)CCCN(C(=O)c2ccc(C(C)C)[nH]c2=O)C1 (stereo not given)
cytotoxicity at 70.5 h, %: -5.84

molecule: O=C(c1ccc2[nH]ccc2c1)N1CCCSCC1CN1CCCC1 (stereo not given)
cytotoxicity at 70.5 h, %: -2.63

Here are 5 molecules. What values of cytotoxicity at 70.5 h were reported for them?
1. CC(C)c1nccn1C(C)C(=O)N1CCN(S(C)(=O)=O)CC1 (stereo not given)
2. CNc1nc(CNC(=O)Nc2ccc(SC)c(F)c2)cs1
3. CN1CC2(CCCN(Cc3nnc(-c4ccccc4)o3)CC2)OC1=O (stereo not given)
4. CCOc1cccc(C(C(=O)O)N(C)Cc2cc(C)no2)c1 (stereo not given)
5. COc1ccc(C(=O)N(Cc2cnn(C)c2)C(C)C)cc1Br

1: -9.53; 2: -1.49; 3: -15; 4: -9.85; 5: -9.53

Here are 3 molecules. What values of cytotoxicity at 70.5 h were reported for them?
1. OCc1csc(N2CCN(Cc3cccc(F)c3)CC2)n1
2. CCc1ccc(S(=O)(=O)Nc2ccn(CC(=O)OC)n2)cc1
3. CC(C)(C)CC(=O)Nc1ccc(S(C)(=O)=O)nc1

1: 22.2; 2: -4.63; 3: -6.59

Here are 2 molecules. What values of cytotoxicity at 70.5 h were reported for them?
1. Cc1nc(CN2CCC3(CC2)C(=O)N(C)CCN3C)cs1
2. Cn1ccnc1NC[C@@H]1CCC[C@@H]2CN(Cc3nccs3)C[C@@H]21

-4.7
-0.236

====

- protocolDetails: Human HepG2 cell viability assay in 384 well format
- Format: toxicity, cell-based
- Set-up: dose 125 nL, time 70.5 hour; concentration not given beside the values
- recordedConditions: HepG2 cells, read-out: Inhibition
assayEndpoint: cytotoxicity at 70.5 h (%)
One number for each entry, in %.

Some entries whose results are on file:
compound: COCC(=O)N[C@H]1C[C@@H](Cc2cc(CN3CCOCC3)on2)C1(C)C
assayEndpoint: cytotoxicity at 70.5 h
observedValue: 11.2
--
compound: CCc1cnc(C)nc1NCCN1CCCCCC1
assayEndpoint: cytotoxicity at 70.5 h
observedValue: -11.6
--
compound: O=C(Nc1ccccc1)N1C[C@H]2C[C@H](C(=O)N3CCCC3)[C@@H](C1)O2
assayEndpoint: cytotoxicity at 70.5 h
observedValue: 15.5
--
compound: CN(C)C(=O)[C@@H]1CCO[C@@H]2CCN(c3ncccn3)C[C@H]21
assayEndpoint: cytotoxicity at 70.5 h
observedValue: -15.3
--
compound: Cc1cc(C(=O)N2CCN(CC(O)Cn3cccn3)CC2)c(C)o1 (configuration not stated)
assayEndpoint: cytotoxicity at 70.5 h
observedValue: 6.38
--
compound: Cc1c(Br)cccc1C(=O)NCC1CCNCC1
assayEndpoint: cytotoxicity at 70.5 h
observedValue: 8.92
--
compound: CN(C)C(CNC(=O)NCCc1cccc(O)c1)c1ccco1 (configuration not stated)
assayEndpoint: cytotoxicity at 70.5 h
observedValue: -5.87
--
compound: CCCN(CCC)CCNc1c(-c2ccccc2)c(=O)c1=O
assayEndpoint: cytotoxicity at 70.5 h
observedValue: 1.06

Here are 6 compounds. What values of cytotoxicity at 70.5 h were reported for them?
1. O=C(c1ccco1)N1C[C@@H]2OCCN(CCN3CCCC3)[C@@H]2C1
2. Cn1cccc1C(=O)N1CCC(c2nnc(Cn3ccnc3)n2C)CC1
3. CC1(C)CC(CN2CCC3(CCC(=O)N(CCO)C3)CC2)CCO1 (configuration not stated)
4. COCCNC(=O)C1CN(C(N)=O)Cc2ccnn2C1 (configuration not stated)
5. COc1cccc(COCC(=O)N2CCCC(c3cc(C)[nH]n3)C2)c1 (configuration not stated)
6. COCCNC(=O)[C@H]1C[C@H]2OCC[C@H]2N(Cc2ccoc2)C1

[-11.2, -5.24, -10.6, -8.89, -14.7, -3.39]

====

- protocolDetails: Human HepG2 cell viability assay in 384 well format
- Format: toxicity, cell-based
- Design: dose 125 nL, time 70.5 hour; concentration not given beside the values
- recordedConditions: HepG2 cells, read-out: Inhibition
assayEndpoint: cytotoxicity at 70.5 h (%)
Answers are plain numbers, in %.

compound: Cc1cccc(CN2C[C@@H]3COC[C@]3(COCC(=O)N(C)C)C2)n1
cytotoxicity at 70.5 h, %: -3.44

compound: COc1cccc2c1OCC(C(=O)N1CCN(CCS(C)(=O)=O)CC1)C2 (stereo not drawn)
cytotoxicity at 70.5 h, %: -4.99

compound: CCc1nc(C2CCCN2CCC(=O)N2CCc3ccccc32)no1 (stereo not drawn)
cytotoxicity at 70.5 h, %: 20.5

compound: COc1cccc2c1OCCCN(c1nc(N)nc3c1CCNC3)C2
cytotoxicity at 70.5 h, %: 12.6

Here are 7 compounds. What values of cytotoxicity at 70.5 h were reported for them?
1. CS(=O)(=O)NC[C@]12COC[C@H]1CN(C(=O)C1CCSCC1)C2
2. N#Cc1cccnc1N1CCCC(CO)(CCOc2ccccc2)C1 (stereo not drawn)
3. Cn1c(C2CC2)nc2c1CCN(CC(=O)Nc1nccs1)C2
4. CC[C@H]1CN2CC[C@H]1C[C@@H]2CNCc1ccc(N(C)C)cc1
5. CN(C)c1cc(C2CCCN2)ccn1 (stereo not drawn)
6. O=C(NC1CC1)N1CCN(c2cnccn2)CC1
7. CCC1CCCN(C(=O)Cc2csc(-c3ncccn3)n2)C1 (stereo not drawn)

1: -5.88; 2: -7.83; 3: -6.18; 4: 26.4; 5: 0.143; 6: -1.17; 7: 36.3

Here are 4 compounds. What values of cytotoxicity at 70.5 h were reported for them?
1. CCC(CNC(=O)NCc1cc[nH]n1)N1CCCC1 (stereo not drawn)
2. Cc1ncsc1CN1C[C@H]2OCC[C@H]2[C@H](C(=O)NCC2CC2)C1
3. CS(=O)(=O)N1C[C@H]2CN(CC3CC3)C(=O)[C@H]2C1
4. N#Cc1cccc(CN2C[C@@H](F)[C@@H](OCc3nc4cnccc4[nH]3)C2)c1

[-4.31, 2.15, -2.81, 11.4]

Here are 3 compounds. What values of cytotoxicity at 70.5 h were reported for them?
1. Cn1cc(CN2C[C@@H](NC(=O)c3cscn3)[C@H]3OCCC[C@H]32)cn1
2. O=C(c1cnccn1)N1CC(S(=O)(=O)c2ccc(Cl)cc2)C1
3. CCC(CO)NCc1ccc(-c2ccc(F)cc2)o1 (stereo not drawn)

1. -8.57
2. -4.33
3. -2.16

====

- protocolDetails: Human HepG2 cell viability assay in 384 well format
- Type: toxicity, cell-based
- Parameters: dose 125 nL, time 70.5 hour; concentration not given beside the values
- recordedConditions: HepG2 cells, read-out: Inhibition
assayEndpoint: cytotoxicity at 70.5 h (%)
Give bare numbers, in %.

Some entries whose results are on file:
compound: Cc1ccc(C(=O)N2CCC(Oc3ccccc3)CC2)c(=O)[nH]1
unitAnnotation: %
cytotoxicity at 70.5 h: 10.3
--
compound: OCCn1cc(CN2CCN(CCOc3ccccc3F)CC2)cn1
unitAnnotation: %
cytotoxicity at 70.5 h: 16.6

Here are 8 compounds. What values of cytotoxicity at 70.5 h were reported for them?
1. Cc1cc2ccccc2n1CCC(=O)NCc1ncc[nH]1
2. Cc1cccc(NC(=O)Nc2c[nH]c(=O)[nH]c2=O)c1C
3. CC(=O)Nc1nc(C2CN(C(=O)C3CCC3)C2)cs1
4. CC(C)NC1CCc2c(ccc(=O)n2CC2CC2)C1 (stereo unspecified)
5. COCCn1cc(C(=O)N2CCCC2c2noc(C)n2)ccc1=O (stereo unspecified)
6. CN1CCN(C[C@H]2CN3CC[C@H]2C[C@@H]3CNC(=O)c2ccco2)CC1
7. O=C(Cc1ccc(F)cc1)N1CCN(CC(O)c2ccccc2)CC1 (stereo unspecified)
8. Cc1ccc(C2NC(=O)c3cc(C(C)C)sc3N2)cc1 (stereo unspecified)

1: -1.07; 2: -1.56; 3: -7.1; 4: 4.51; 5: 40.8; 6: -6.36; 7: -4.51; 8: -5.82
